Entries and their residual kinase activity, TSSK1
- SYSTEM NAME: TSSK1 (Homo sapiens)
- Sequence (Q9BXA7 whole entry, species assumed): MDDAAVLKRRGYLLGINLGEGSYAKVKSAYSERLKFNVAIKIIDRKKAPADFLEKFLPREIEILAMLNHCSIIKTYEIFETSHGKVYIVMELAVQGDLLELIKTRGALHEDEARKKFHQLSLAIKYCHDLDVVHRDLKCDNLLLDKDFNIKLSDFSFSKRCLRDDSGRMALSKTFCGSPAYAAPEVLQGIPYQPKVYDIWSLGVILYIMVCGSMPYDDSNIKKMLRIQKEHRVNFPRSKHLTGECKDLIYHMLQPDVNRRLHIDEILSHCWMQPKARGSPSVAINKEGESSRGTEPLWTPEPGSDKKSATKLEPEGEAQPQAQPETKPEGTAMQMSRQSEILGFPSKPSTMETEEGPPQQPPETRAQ
- ASSAY PROCEDURE: Kinase profiling TSSK1
- Assay type: biochemical
- CONDITION PARAMETERS: 100 micromolar inhibitor concentration; 100 is no change
RESULT TYPE: residual kinase activity, TSSK1

>  <LINE NOTATION>
CC(=O)Nc1nc2cc(C)ccc2s1

>  <VAL>
79

$$$$
>  <LINE NOTATION>
CC(=O)Nc1nc2ccccc2s1

>  <VAL>
83

$$$$
>  <LINE NOTATION>
O=C(Nc1nc2ccc(O)cc2s1)c1ccncc1

>  <VAL>
85

$$$$
>  <LINE NOTATION>
O=C(Nc1nc2ccc(O)cc2s1)c1ccccc1

>  <VAL>
27

$$$$
>  <LINE NOTATION>
O=C(Nc1nc2cc(O)ccc2s1)c1cccnc1

>  <VAL>
75

$$$$
>  <LINE NOTATION>
O=C(Nc1nc2cc(O)ccc2s1)c1ccncc1

>  <VAL>
97

$$$$
>  <LINE NOTATION>
O=C(Nc1nc2cc(O)ccc2s1)c1ccccn1

>  <VAL>
95

$$$$
>  <LINE NOTATION>
O=C(Nc1nc2ccc(O)cc2s1)c1cccnc1

>  <VAL>
109

$$$$
>  <LINE NOTATION>
O=C(Nc1nc2ccc(O)cc2s1)c1ccccn1

>  <VAL>
66

$$$$
